- tested on: Cyclin-dependent kinase 2 (Homo sapiens, UniProt P24941)
endpoint label: IC50
The reply should consist of the numeric value with the unit placed after it.

// returns reported IC50 for input `CCN(CC)C(=O)c1ccc(Nc2nc(OCC3CCCCC3)c3nc[nH]c3n2)cc1`
0.4 µM

---

What IC50 was measured for each of the following?
- tested on: CDK9/cyclin T1 (Homo sapiens)
- Sequence (O60563 whole entry): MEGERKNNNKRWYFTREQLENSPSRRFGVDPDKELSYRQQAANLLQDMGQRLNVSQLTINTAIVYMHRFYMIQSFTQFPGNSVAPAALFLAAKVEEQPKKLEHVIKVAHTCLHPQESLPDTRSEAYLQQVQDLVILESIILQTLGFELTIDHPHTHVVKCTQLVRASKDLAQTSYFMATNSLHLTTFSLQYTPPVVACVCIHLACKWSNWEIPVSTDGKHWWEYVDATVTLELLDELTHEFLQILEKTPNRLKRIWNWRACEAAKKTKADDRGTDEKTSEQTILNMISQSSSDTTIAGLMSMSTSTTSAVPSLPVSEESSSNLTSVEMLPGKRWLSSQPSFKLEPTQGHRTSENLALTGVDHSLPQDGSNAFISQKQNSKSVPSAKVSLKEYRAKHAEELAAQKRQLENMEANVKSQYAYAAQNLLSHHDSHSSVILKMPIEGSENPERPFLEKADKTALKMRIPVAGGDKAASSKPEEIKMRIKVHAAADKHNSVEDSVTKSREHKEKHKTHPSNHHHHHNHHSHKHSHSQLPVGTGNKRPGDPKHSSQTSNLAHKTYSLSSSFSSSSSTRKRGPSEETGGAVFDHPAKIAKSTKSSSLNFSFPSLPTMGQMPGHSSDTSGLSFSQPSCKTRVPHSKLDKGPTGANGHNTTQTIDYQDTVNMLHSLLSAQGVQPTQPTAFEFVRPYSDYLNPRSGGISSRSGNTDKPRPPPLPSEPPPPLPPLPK
- Sequence (P50750 whole entry): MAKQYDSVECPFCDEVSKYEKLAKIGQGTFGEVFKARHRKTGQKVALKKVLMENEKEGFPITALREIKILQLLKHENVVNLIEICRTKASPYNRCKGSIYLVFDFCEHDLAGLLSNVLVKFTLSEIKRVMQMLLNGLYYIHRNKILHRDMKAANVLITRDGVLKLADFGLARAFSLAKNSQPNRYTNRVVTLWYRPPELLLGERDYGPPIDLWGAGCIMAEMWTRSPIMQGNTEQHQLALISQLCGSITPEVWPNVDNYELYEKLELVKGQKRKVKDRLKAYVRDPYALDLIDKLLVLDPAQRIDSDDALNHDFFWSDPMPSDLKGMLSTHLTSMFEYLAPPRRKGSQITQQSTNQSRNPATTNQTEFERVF
- method notes: biochemical
Numbers only, in µM.

Example results:
compound structure string: Nc1nc(Nc2ccc(S(N)(=O)=O)cc2)nn1C(=S)Nc1c(F)cccc1F
IC50 (µM): 0.03
--
compound structure string: CCN(CC)C(=O)c1ccc(Nc2nc(OCC3CCCCC3)c3nc[nH]c3n2)cc1
IC50 (µM): 5.1
--
compound structure string: CN1CCN(c2ccc(Nc3ncc4cc(C#N)c(=O)n(C5CCCC5)c4n3)cc2)CC1
IC50 (µM): 0.117

For each of the items listed, what is its IC50?
1. CC(C)c1cnc(NC(=O)Cc2ccccc2)s1
2. CC[C@H](CO)Nc1nc(Nc2cccc(-c3ccccn3)c2)c2ncn(C(C)C)c2n1
3. O=C1Nc2cc(Br)ccc2/C1=C1/Nc2ccccc2/C1=N\O

3.4
8
0.45

For each entry beneath this line, provide reported IC50.
1. COc1ccc(CNc2nc(N(CCO)CCO)nc3c2ncn3C(C)C)cc1
2. O=C1NC(=O)c2c1c1c3ccccc3[nH]c1c1[nH]c3cc(Br)ccc3c21
3. CCCCOc1c(C(=O)c2c(F)cc(C)cc2F)c[nH]c2nncc1-2
4. Nc1n[nH]c2nc3ccccc3nc12
5. CCn1cnc2c(Nc3cccc(Cl)c3)nc(N[C@@H]3CCCC[C@@H]3N)nc21

1: 2.3; 2: 4; 3: 1.8; 4: 14.1; 5: 1.4

Need IC50 of `CCCOc1cnc(CN/C=C2\C(=O)NC(=O)c3ccc(I)cc32)cc1O` , thanks.
1

---

What follows is a collection of IC50 values obtained with CDK2/Cyclin A2 (Homo sapiens).
Give bare numbers, in nM.

Use the examples below as a reference point.
compound structure string: Nc1n[nH]c2nc3ccccc3nc12
IC50 [nM]: 10

compound structure string: O=C1Nc2ccccc2/C1=C\c1c(Cl)[nH]c2ccccc12
IC50 [nM]: 13200

compound structure string: CNC(=O)c1nn(C)c2c1C(C)(C)Cc1cnc(Nc3ccc(N4CCN(C)CC4)cc3)nc1-2
IC50 [nM]: 109

compound structure string: CCN(CC)C(=O)c1ccc(Nc2nc(OCC3CCCCC3)c3nc[nH]c3n2)cc1
IC50 [nM]: 407000

compound structure string: CCn1cnc2c(Nc3cccc(Cl)c3)nc(N[C@@H]3CCCC[C@@H]3N)nc21
IC50 [nM]: 46

compound structure string: OCCCNc1cc(-c2ccnc(Nc3cccc(Cl)c3)n2)ccn1
IC50 [nM]: 4

compound structure string: CC(C)c1cnc(NC(=O)Cc2ccccc2)s1
IC50 [nM]: 353

compound structure string: O=C1NC(=O)c2c1c1c3ccccc3[nH]c1c1[nH]c3ccccc3c21
IC50 [nM]: 135

Parameter requested: IC50. Apply to each item below.
1. O=C1NC(=O)c2c1c1c3ccccc3[nH]c1c1[nH]c3cc(Br)ccc3c21
2. CCCOc1cnc(CN/C=C2\C(=O)NC(=O)c3ccc(I)cc32)cc1O

185
71

Where do the numbers come from? From ChEMBL document CHEMBL4308846.
